- method notes: BSK_3C_SRB: Viability Assessment in the BioMAP Diversity Plus: 3C Assay (AID 2283023);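 further: cells read 24 h after compound dosing; fitted both ways against DMSO so a hit may be signal rise or drop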
- condition details: primary human endothelial cells (HUVEC)
The source made the active and inactive calls. How the source made its calls: active means hit-call score of the fitted dose curve at least 0.9, where 1 is the maximum; inactive means score below 0.9.
measure name: AC50

Here are 4 compounds together with their reported answers.
compound=CC[N+](CC)(CC(=O)Nc1c(C)cccc1C)Cc1ccccc1 measure_name=AC50 result=inactive
compound=CN(C)c1ccc(C(c2ccccc2)c2ccc(N(C)C)cc2)cc1 measure_name=AC50 result="9.62 µM (active)"
compound=CN(C)Cc1cc(C(C)(C)C)c(O)c(C(C)(C)C)c1 measure_name=AC50 result=inactive
compound=COc1ccccc1Oc1c(NS(=O)(=O)c2ccc(C(C)(C)C)cc2)nc(-c2ncccn2)nc1OCCO measure_name=AC50 result=inactive

Prompt line: Recorded AC50 of CCC[Si](OC(C)=O)(OC(C)=O)OC(C)=O , please.
Response line: inactive

Prompt line: Same lookup for C1CN(CCOCCN2CCOCC2)CCO1 , please.
Response line: inactive

Prompt line: Same lookup for CCCCCCCCCCCCCCCCCC[N+](C)(C)C , please.
Response line: 1.31 µM (active)

Prompt line: Same lookup for Cc1cc(-n2nc3ccc(Cl)cc3n2)c(O)c(C(C)(C)C)c1 , please.
Response line: 0.342 µM (active)

Prompt line: Same lookup for CC[N+](CC)(CC(=O)Nc1c(C)cccc1C)Cc1ccccc1 (tested in a mixture with another compound) , please.
Response line: inactive

Prompt line: Same lookup for Sc1nc2ccccc2s1 , please.
Response line: inactive

Prompt line: Same lookup for CC(C)CC(=O)CC(C)CC(C)C (stereo not given) , please.
Response line: 35.2 µM (active)

Prompt line: Same lookup for Oc1cccc2ccccc12 , please.
Response line: 8.23 µM (active)

Prompt line: Same lookup for Cc1c(C(N)=O)cc([N+](=O)[O-])cc1[N+](=O)[O-] , please.
Response line: inactive

Prompt line: Same lookup for Cc1cccnc1 , please.
Response line: inactive

Prompt line: Same lookup for CC(C)C1OCCN1CCOC(=O)NCCCCCCNC(=O)OCCN1CCOC1C(C)C (stereo not given) , please.
Response line: inactive

----------
- method notes: TOX21_p53_BLA_p3_viability: Viability Assessment in the Tox21 HCT-116 p53 Agonism Beta-lactamase Assay, Phase 3 (AID 2283593);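 further: cells exposed to compound for 16 h before reading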
Results filed as inconclusive are left out. Activity calls are given as the source filed them. How the source made its calls: active means hit-call score of the fitted dose curve at least 0.9, where 1 is the maximum; inconclusive means response in the unintended direction; inactive means score below 0.9.
measure name: outcome

line_notation=CC1=NS(=O)(=O)c2cc(Cl)ccc2N1 result=inactive
line_notation=C[C@@H]1C[C@H]2[C@@H]3C[C@H](F)C4=CC(=O)C=C[C@]4(C)[C@@]3(Cl)[C@@H](O)C[C@]2(C)[C@H]1C(=O)COC(=O)C(C)(C)C result=inactive
line_notation=CN1C(=O)OC(C)(C)C1=O result=inactive
line_notation=COC(=O)/C=C\C(=O)OC result=inactive

Turning now to a further record.
Prompt line: Recorded outcome of CC(C)=CCC/C(C)=C/CC/C(C)=C/CC/C=C(\C)CC/C=C(\C)CCC=C(C)C , please.
Response line: inactive

----------
- method notes: CCTE_Harrill_HTTr_Apoptosis_MCF7: CCTE's 6-hour Apoptosis Assessment for the High-Throughput Transcriptomics (HTTr) Platform, in MCF-7 cells cultured in DMEM + 10% fetal bovine serum, Harrill Lab (AID 2284011)
Calls of active or inactive are those of the source. Rule for the calls: active = hit-call score of the fitted dose curve at least 0.9, where 1 is the maximum; inactive = score below 0.9.
One label from this list, please: label 1 for active, label 0 for inactive

Prompt line: For COc1ccc2cc([C@H](C)C(=O)O)ccc2c1 , what call appears in the results of this test?
Response line: label 0

Prompt line: Same lookup for Cc1cnc(C(=O)NCCc2ccc(S(=O)(=O)NC(=O)NC3CCCCC3)cc2)cn1 , please.
Response line: label 0

Prompt line: Same lookup for O=[N+]([O-])c1ccc2nc[nH]c2c1 , please.
Response line: label 0

Prompt line: Same lookup for Brc1ccc(Oc2ccc(Br)cc2)cc1 , please.
Response line: label 0

Prompt line: Same lookup for Cc1cc(C)c(C=C2C(=O)Nc3ccccc32)[nH]1 , please.
Response line: label 1

Prompt line: Same lookup for COc1ccc(Cl)cc1C(=O)NCCc1ccc(S(=O)(=O)NC(=O)NC2CCCCC2)cc1 , please.
Response line: label 0

Prompt line: Same lookup for CC[N+](CC)(CC(=O)Nc1c(C)cccc1C)Cc1ccccc1 (tested in a mixture with another compound) , please.
Response line: label 0

Prompt line: Same lookup for CN(C)CCCN1c2ccccc2CCc2ccc(Cl)cc21 , please.
Response line: label 1

Prompt line: Same lookup for C[C@@H]1CN(c2c(F)c(N)c3c(=O)c(C(=O)O)cn(C4CC4)c3c2F)C[C@H](C)N1 , please.
Response line: label 0

Prompt line: Same lookup for O=C(OOC(=O)c1ccccc1)c1ccccc1 , please.
Response line: label 0

Prompt line: Same lookup for CC[C@H](CC[C@@H](C)[C@H]1CC[C@H]2[C@@H]3CC=C4C[C@@H](O)CC[C@]4(C)[C@H]3CC[C@]12C)C(C)C , please.
Response line: label 0

Prompt line: Same lookup for C[C@H]1C[C@H]2[C@@H]3CCC4=CC(=O)C=C[C@]4(C)[C@@]3(F)[C@@H](O)C[C@]2(C)[C@@]1(O)C(=O)CO , please.
Response line: label 0

Prompt line: Same lookup for COc1ccc(C(=O)c2ccccc2O)c(O)c1 , please.
Response line: label 0

Prompt line: Same lookup for Nc1nc(N)c2nc(-c3ccccc3)c(N)nc2n1 , please.
Response line: label 0

Prompt line: Same lookup for O=C1OCCN1N=Cc1ccc([N+](=O)[O-])o1 , please.
Response line: label 0

Prompt line: Same lookup for CCCc1c(OCCCCc2nn[nH]n2)ccc(C(C)=O)c1O , please.
Response line: label 0

Prompt line: Same lookup for CNC(=C[N+](=O)[O-])NCCSCc1csc(CN(C)C)n1 , please.
Response line: label 0

Prompt line: Same lookup for c1ccc([C@H]2CN3CCSC3=N2)cc1 , please.
Response line: label 0

Prompt line: Same lookup for CC(=O)O[C@]1(C(C)=O)CC[C@H]2[C@@H]3C=C(C)C4=CC(=O)CC[C@]4(C)[C@H]3CC[C@@]21C , please.
Response line: label 0

Prompt line: Same lookup for COc1ccc(CCN(C)CCCC(C#N)(c2ccc(OC)c(OC)c2)C(C)C)cc1OC (configuration not stated) , please.
Response line: label 0

Prompt line: Same lookup for Cc1cc(O)cc(C)c1Cl , please.
Response line: label 0

Prompt line: Same lookup for COc1ccc([C@@H]2Sc3ccccc3N(CCN(C)C)C(=O)[C@@H]2OC(C)=O)cc1 , please.
Response line: label 0

----------
- method notes: ATG_Ets_CIS: Attagene CIS-FACTORIAL HepG2 Assay for human Erythroblast Transformation Specific (ETS) (AID 2282941)
- condition details: HepG2 ETS cis-reporter transcription, actives raise or lower the signal
Activity calls are given as the source filed them. How the source made its calls: active means hit-call score of the fitted dose curve at least 0.9, where 1 is the maximum; inactive means score below 0.9.
measure name: AC50

Here are 6 compounds together with their reported answers.
compound=CCCCn1cc[n+](C)c1 result=inactive
compound=CC(C)CC(=O)CC(C)C result=inactive
compound="O=C(C1CCCCC1)N1CC(=O)N2CCc3ccccc3C2C1 (centres undefined)" result=inactive
compound=O=C1NC(=O)[C@@H]2CC=CC[C@H]12 result=inactive
compound=CC/C=C\CC/C=C/C(OCC)OCC result="100 µM (active)"
compound=CCCC[N+]1(C)CCCC1 result=inactive

Prompt line: Recorded AC50 of CN(C)c1ccc(C(c2ccccc2)c2ccc(N(C)C)cc2)cc1 , please.
Response line: inactive

Prompt line: Same lookup for CC/C=C\CCO , please.
Response line: inactive

Prompt line: Same lookup for O=C(OCc1ccccc1)c1ccccc1 , please.
Response line: inactive

Prompt line: Same lookup for CCO[Si](OCC)(OCC)c1ccccc1 , please.
Response line: inactive

Prompt line: Same lookup for CC1=NN(c2cc(Cl)c(S(=O)(=O)O)cc2Cl)C(=O)C1N=Nc1ccc(S(=O)(=O)O)cc1 (centres undefined) , please.
Response line: inactive

Prompt line: Same lookup for COc1cccc(OC)c1C(=O)O , please.
Response line: inactive

Prompt line: Same lookup for COC(=O)/C=C\C(=O)OC , please.
Response line: 100 µM (active)

Prompt line: Same lookup for Cc1cccnc1 , please.
Response line: 165 µM (active)

----------
- method notes: CCTE_Mundy_HCI_Cortical_Synap_Neur_Matur_SynapseCount: CCTE's Synaptogenesis and Neurite Maturation Assay in rat cortical cells for Synapse Count, Mundy Lab (AID 2284218)
Activity calls are given as the source filed them. Rule for the calls: active = hit-call score of the fitted dose curve at least 0.9, where 1 is the maximum; inactive = score below 0.9.
One label from this list, please: yes = active, no = inactive

Prompt line: For CNCCC(Oc1ccc(C(F)(F)F)cc1)c1ccccc1 (stereo unspecified) , what call appears in the results of this test?
Response line: yes

Prompt line: Same lookup for Cc1c(O)cccc1C(=O)N[C@@H](CSc1ccccc1)[C@H](O)CN1C[C@H]2CCCC[C@H]2C[C@H]1C(=O)NC(C)(C)C , please.
Response line: yes

Prompt line: Same lookup for CC1(C)S[C@@H]2[C@H](NC(=O)[C@H](N)c3ccccc3)C(=O)N2[C@H]1C(=O)O , please.
Response line: no

Prompt line: Same lookup for CC1(C)S[C@@H]2[C@H](NC(=O)[C@H](N)c3ccc(O)cc3)C(=O)N2[C@H]1C(=O)O , please.
Response line: no

Prompt line: Same lookup for CC(C)(C)NCC(O)c1cc(O)cc(O)c1 (stereo unspecified) , please.
Response line: no

Prompt line: Same lookup for C[C@H](CS)C(=O)N1CCC[C@H]1C(=O)O , please.
Response line: no
